Biological target: Human MTHFD2 (Homo sapiens)
Sequence (P13995 36-350): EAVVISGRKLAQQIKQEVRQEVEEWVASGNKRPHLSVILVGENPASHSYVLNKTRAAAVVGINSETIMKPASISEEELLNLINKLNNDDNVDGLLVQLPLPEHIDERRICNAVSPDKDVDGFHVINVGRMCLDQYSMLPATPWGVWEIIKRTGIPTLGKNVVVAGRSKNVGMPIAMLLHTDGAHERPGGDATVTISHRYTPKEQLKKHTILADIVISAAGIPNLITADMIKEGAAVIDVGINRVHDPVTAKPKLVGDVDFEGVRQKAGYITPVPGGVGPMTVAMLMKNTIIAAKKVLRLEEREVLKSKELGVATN
pIC50: −log10 of the molar value.
property-label: pIC50

Recorded pIC50, per entry:
>  <compound>
CCn1c(=O)n(Cc2cc3c(Cl)cccc3[nH]2)c(=O)c2c1nc(Nc1ccncc1)n2C

>  <value>
6.00 to 8.00

$$$$
>  <compound>
Cn1c(N[C@H]2CCC[C@H]2O)nc2c1c(=O)n(Cc1ccc(Cl)c(Cl)c1)c(=O)n2C

>  <value>
6.00 to 8.00

$$$$
>  <compound>
CC(N)c1nc2c(c(=O)n(Cc3ccc4c(C5CC5)cccc4c3)c(=O)n2C)n1C (centres unmarked)

>  <value>
6.00 to 8.00

$$$$
>  <compound>
Cn1c(Nc2ccccn2)nc2c1c(=O)n(Cc1cc3c(Cl)cccc3[nH]1)c(=O)n2C

>  <value>
6.00 to 8.00

$$$$

pIC50 for Human MTHFD2 (Homo sapiens) with input Cn1cnc2c1c(=O)n(Cc1ccc(Cl)c(Cl)c1)c(=O)n2C equals 5.30 to 6.00

pIC50 for Human MTHFD2 (Homo sapiens) with input Cc1ccc2c(c1)cc(Cn1c(=O)c3c(nc(N[C@H]4CC[C@@H](O)C4)n3C)n(C)c1=O)n2C equals 6.00 to 8.00

Kindly note: Human MTHFD2 (Homo sapiens), CCc1cccc2[nH]c(Cn3c(=O)c4c(nc(Nc5ccncc5)n4C)n(C)c3=O)cc12 , pIC50 value reported: 6.00 to 8.00

The compound CCOC(=O)[C@H]1C[C@@H](Nc2nc3c(c(=O)n(Cc4ccc(Cl)c(Cl)c4)c(=O)n3C)n2C)C1 , when measured on Human MTHFD2 (Homo sapiens), yielded pIC50 of 6.00 to 8.00
